# target: C-Raf kinase (Homo sapiens, UniProt P04049, Y340D/Y341D)
# Construct: Y340D,; GST (N); purchased Sigma
# Sequence (P04049 307-648 Y340D/Y341D): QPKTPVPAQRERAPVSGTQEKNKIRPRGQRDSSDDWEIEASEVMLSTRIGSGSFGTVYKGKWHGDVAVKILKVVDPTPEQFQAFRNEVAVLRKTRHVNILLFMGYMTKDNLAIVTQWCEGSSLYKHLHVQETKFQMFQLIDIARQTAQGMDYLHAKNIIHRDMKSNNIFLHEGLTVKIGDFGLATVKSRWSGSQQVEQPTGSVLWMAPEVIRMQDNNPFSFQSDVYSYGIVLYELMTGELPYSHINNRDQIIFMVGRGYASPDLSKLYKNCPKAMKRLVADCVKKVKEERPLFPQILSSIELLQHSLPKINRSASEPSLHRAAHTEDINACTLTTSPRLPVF
# assay: Biochemical assay for C-Raf.1 (coupled pyruvate kinase/lactate dehydrogenase)
# reported.conditions: read-out: CRAF.1 IC50
measured.quantity: IC50

INSERT INTO assay_data (compound, measured_quantity, measured_value) VALUES
  ('COC(=O)Nc1cc(-c2cnnc(-c3cc(NC(=O)N4CCC(C)(C)C4)cnc3C)c2)ccn1', 'IC50', '> 1000 nM'),
  ('Cc1ncc(NC(=O)NC[C@H](O)C(C)(C)C)cc1-c1ccnc(-c2ccnc(NC(=O)C3CC3)c2)c1', 'IC50', '≤ 100 nM'),
  ('Cc1ccc(NC(=O)N2CCC(CC(F)(F)F)C2)cc1-c1cncc(-c2cc(NC(=O)C3CC3)ncn2)c1 (stereo not drawn)', 'IC50', '≤ 100 nM'),
  ('COC[C@@H]1CCN(C(=O)Nc2cnc(C)c(-c3cc(OCCO)nc(-c4ccnc(NC(=O)OC)c4)c3)c2)C1', 'IC50', '100 to 500 nM'),
  ('Cc1cc(F)c(NC(=O)NCCC(C)(C)F)cc1-c1cccc(-c2cc(NC(=O)C3CC3)ncn2)c1', 'IC50', '≤ 100 nM'),
  ('CNC(=O)c1cc(-c2cnnc(-c3cc(NC(=O)NCCC(C)(C)F)c(F)cc3C)c2)ccn1', 'IC50', '100 to 500 nM'),
  ('Cc1ncc(NC(=O)NCCC2(C)CC2)cc1-c1nccc(-c2ccnc(NC(=O)C3CC3)c2)n1', 'IC50', '≤ 100 nM'),
  ('Cc1ccc(NC(=O)N[C@H]2CCc3ccccc32)cc1-c1cc(OCCO)nc(N2CCOCC2)c1', 'IC50', '100 to 500 nM'),
  ('COC(=O)Nc1cc(-c2nccc(-c3cc(NC(=O)NCCC4(C)CC4)cnc3C)n2)ccn1', 'IC50', '≤ 100 nM'),
  ('COC(=O)Nc1cc(-c2cc(-c3cc(NC(=O)NCCC4(C)CC4)cnc3C)ccn2)ccn1', 'IC50', '≤ 100 nM'),
  ('Cc1cc(F)c(NC(=O)NCCC2(C(F)(F)F)CC2)cc1-c1cc(N2CCOCC2)nc(N2CC[C@H](N(C)C)C2)c1', 'IC50', '100 to 500 nM'),
  ('Cc1cc(F)c(NC(=O)N[C@@H]2CC[C@H](F)C2)cc1-c1cc(OCCO)nc(-c2ccnc3[nH]ncc23)c1', 'IC50', '100 to 500 nM'),
  ('Cc1ncc(NC(=O)NCCC(C)(C)F)cc1-c1nccc(-c2ccnc(NC(=O)C3CC3)c2)n1', 'IC50', '≤ 100 nM'),
  ('COC(=O)Nc1cc(-c2cccc(-c3cc(NC(=O)NCCC4(OC)CC4)cnc3C)c2)ncn1', 'IC50', '≤ 100 nM'),
  ('Cc1cc(F)c(NC(=O)NC2CC(C)(C)C2)cc1-c1cc(OCCO)nc(-c2ccnc(NC(=O)C3CC3)c2)c1', 'IC50', '≤ 100 nM');

###

# target: B-Raf (V600E) kinase (Homo sapiens, UniProt P15056, V600E)
# Construct: B-Raf (V600E) residues 416-766 with a; GST (N); purchased SignalChem
# Sequence (P15056 416-766 V600E): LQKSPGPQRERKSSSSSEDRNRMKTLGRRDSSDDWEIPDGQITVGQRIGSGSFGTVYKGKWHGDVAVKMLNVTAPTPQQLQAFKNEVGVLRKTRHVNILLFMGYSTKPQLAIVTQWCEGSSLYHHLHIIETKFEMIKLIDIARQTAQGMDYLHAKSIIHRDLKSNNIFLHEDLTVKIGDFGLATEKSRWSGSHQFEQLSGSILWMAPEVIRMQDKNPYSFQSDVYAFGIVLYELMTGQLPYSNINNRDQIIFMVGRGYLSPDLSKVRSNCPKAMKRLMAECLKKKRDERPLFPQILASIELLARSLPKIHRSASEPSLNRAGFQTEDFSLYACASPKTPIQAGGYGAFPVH
# assay: Biochemical assay for B-Raf (V600E).1 (coupled pyruvate kinase/lactate dehydrogenase)
# reported.conditions: read-out: BRAF V600E.1 IC50
measured.quantity: IC50

INSERT INTO results (compound, measured_quantity, measured_value) VALUES
  ('Cc1ccc(NC(=O)N2CCC(F)(F)C2)cc1-c1cncc(-c2cc(NC(=O)C3CC3)ncn2)c1', 'IC50', '100 to 500 nM'),
  ('CNC(=O)c1cc(-c2cnnc(-c3cc(NC(=O)NCCC(C)(C)C)c(F)cc3C)c2)ccn1', 'IC50', '≤ 100 nM'),
  ('Cc1ccc(NC(=O)N2CCC(C(F)(F)F)C2)cc1-c1cccc(-c2cc(NC(=O)C3CC3)ncn2)c1 (stereo not shown)', 'IC50', '≤ 100 nM'),
  ('Cc1cc(F)c(NC(=O)NCCC2(C)CC2)cc1-c1cccc(-c2cc(NC(=O)C3CC3)ncn2)c1', 'IC50', '≤ 100 nM'),
  ('Cc1cc(F)c(NC(=O)NCCC(C)(C)F)cc1-c1ccnc(-c2ccnc(NC(=O)C3CC3)c2)n1', 'IC50', '≤ 100 nM'),
  ('COC(=O)Nc1cc(-c2cnnc(-c3cc(NC(=O)N4CC[C@@H](OC)C4)cnc3C)c2)ccn1', 'IC50', '> 1000 nM'),
  ('COC(=O)Nc1cc(-c2nccc(-c3cc(NC(=O)NCCC(C)(C)F)c(F)cc3C)n2)ccn1', 'IC50', '≤ 100 nM');
